# Tested on: Platelet-derived growth factor receptor (PDGFr) (Rattus norvegicus, UniProt P20786+Q05030)
# Test: Inhibition of PDGF-dependent rat glioma cell proliferation
# Assay type: functional
Attribute measured: IC50 (µM)

CCNC(=O)Nc1nc2nc(NCCCN3CCN(C)CC3)ncc2cc1-c1cc(OC)cc(OC)c1: 12

(a) COc1cc(OC)cc(-c2cc3cnc(NCCCO)nc3nc2NC(=O)NC(C)(C)C)c1
(b) COc1cc(OC)cc(-c2cc3cnc(NCCCCCN4CCN(C)CC4)cc3nc2NC(=O)NC(C)(C)C)c1
Task: Given a and b , report the one with the higher recorded IC50. Answer by quoting the chosen item's label.
Output: a

* * *

Measured IC50 values are reported for all entries that follow.
# Tested on: Platelet-derived growth factor receptor beta (Mus musculus, UniProt P05622)
# Sequence (P05622 whole entry): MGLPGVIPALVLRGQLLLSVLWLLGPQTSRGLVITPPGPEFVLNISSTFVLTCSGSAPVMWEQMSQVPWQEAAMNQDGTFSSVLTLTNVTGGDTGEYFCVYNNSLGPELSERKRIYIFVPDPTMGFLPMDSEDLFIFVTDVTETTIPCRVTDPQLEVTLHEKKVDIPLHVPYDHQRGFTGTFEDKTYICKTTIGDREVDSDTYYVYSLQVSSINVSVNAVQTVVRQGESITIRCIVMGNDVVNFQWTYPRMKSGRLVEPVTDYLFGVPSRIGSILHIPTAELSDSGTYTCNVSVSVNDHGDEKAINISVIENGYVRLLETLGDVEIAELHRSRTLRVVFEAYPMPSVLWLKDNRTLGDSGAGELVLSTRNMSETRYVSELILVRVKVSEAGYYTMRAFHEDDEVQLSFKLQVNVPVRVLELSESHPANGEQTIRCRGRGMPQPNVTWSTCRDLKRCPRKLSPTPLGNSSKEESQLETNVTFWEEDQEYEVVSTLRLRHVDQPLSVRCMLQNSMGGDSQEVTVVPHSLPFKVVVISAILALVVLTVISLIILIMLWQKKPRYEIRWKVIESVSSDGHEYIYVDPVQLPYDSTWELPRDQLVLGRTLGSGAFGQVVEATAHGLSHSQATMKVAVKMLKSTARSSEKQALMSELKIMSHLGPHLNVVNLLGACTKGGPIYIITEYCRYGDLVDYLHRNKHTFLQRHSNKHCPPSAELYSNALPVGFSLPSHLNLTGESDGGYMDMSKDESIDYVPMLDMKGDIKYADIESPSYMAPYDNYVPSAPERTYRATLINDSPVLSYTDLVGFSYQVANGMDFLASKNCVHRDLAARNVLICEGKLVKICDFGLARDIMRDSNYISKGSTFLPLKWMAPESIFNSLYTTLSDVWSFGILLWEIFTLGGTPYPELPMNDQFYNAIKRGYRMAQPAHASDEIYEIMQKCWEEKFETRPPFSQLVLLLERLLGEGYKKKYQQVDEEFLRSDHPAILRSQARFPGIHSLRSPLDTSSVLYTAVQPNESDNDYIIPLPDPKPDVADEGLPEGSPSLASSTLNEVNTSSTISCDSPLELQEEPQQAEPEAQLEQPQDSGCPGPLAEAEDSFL

COc1cc(OC)cc(-c2cc3cnc(N(CCCOCc4ccccc4)C(C)=O)cc3nc2NC(=O)NC(C)(C)C)c1: > 50 µM
COc1cc(OC)cc(-c2cc3cnc(N(CCCCOCc4ccccc4)C(C)=O)cc3nc2NC(=O)NC(C)(C)C)c1: > 50 µM

# evaluate next
Summary line: COc1cc(OC)cc(-c2cc3cnc(N(CCCCCO)C(C)=O)cc3nc2NC(=O)NC(C)(C)C)c1 , Platelet-derived growth factor receptor beta (Mus musculus, UniProt P05622), reported IC50 = > 50 µM

* * *

# Tested on: Platelet-derived growth factor receptor (PDGFr) (Rattus norvegicus, UniProt P20786+Q05030)
# Test: Inhibition of PDGF-dependent rat glioma cell proliferation
# Assay type: functional
Attribute measured: IC50 (µM)

Would you please look over these solved cases?
COc1cc(OC)cc(-c2cc3cnc(NCCCCCN4CCOCC4)cc3nc2NC(=O)NC(C)(C)C)c1: 2.9
CCN(CC)CCCCNc1cc2nc(N)c(-c3cc(OC)cc(OC)c3)cc2cn1: 5.9
CCNC(=O)Nc1nc2cc(NCCCN3CCN(C)CC3)ncc2cc1-c1cc(OC)cc(OC)c1: 7.5

(P) COc1cc(OC)cc(-c2cc3cnc(NCCCN4CCN(C)CC4)nc3nc2NC(=O)NC(C)(C)C)c1
(Q) COc1cc(OC)cc(-c2cc3cnc(NCCCCN4CCOCC4)cc3nc2NC(=O)NC(C)(C)C)c1
(R) CCN(CC)CCCCNc1ncc2cc(-c3cc(OC)cc(OC)c3)c(NC(=O)NC(C)(C)C)nc2n1 [PD-173074]
Task: Give the ascending ranking of the items by reported IC50. Labels, ranked as asked.
Output: Q, P, R
(Q: 2.7 µM, P: 7.9 µM, R: 17 µM)
